# SYSTEM_TESTED: DNA topoisomerase II (Homo sapiens) (UniProt P11388+Q02880)
# RUN_DESCRIPTION: Percent of DNA remaining uncut after incubation with Topoisomerase II at 1 uM concentration
# Type: protein assay
Field: label. Allowed values: satisfied (Uncut DNA < 40%) or not satisfied (Uncut DNA >= 40%).

CPD_SMILES | QUALITATIVE_LABEL
C(=N\NC1=NCCN1)/c1c2ccccc2cc2ccccc12 | satisfied
C(=N\NC1=NCCN1)/c1c2ccccc2nc2ccccc12 | satisfied
C(=N\NC1=NCCN1)/c1c2ccccc2c(/C=N/NC2=NCCN2)c2ccccc12 | not satisfied
C(=N\NC1=NCCN1)/c1ccc(/C=N/NC2=NCCN2)c2cc3ccccc3cc12 | not satisfied
COc1cc(NS(C)(=O)=O)ccc1Nc1c2ccccc2nc2ccccc12 | satisfied
C(=N\NC1=NCCN1)/c1cccc2cc3ccccc3cc12 | not satisfied

====

# SYSTEM_TESTED: DNA topoisomerase II (Homo sapiens) (UniProt P11388+Q02880)
# RUN_DESCRIPTION: Percent of DNA remaining uncut after incubation with Topoisomerase II at 0.1 uM concentration
# Type: protein assay
The following compounds are listed with their measured Uncut DNA values.
MEASURE: Uncut DNA

COMPOUND | OBSERVED_MEASUREMENT
C(=N\NC1=NCCN1)/c1c2ccccc2c(/C=N/NC2=NCCN2)c2ccccc12 [BISANTRENE] | 14%
C(=N\NC1=NCCN1)/c1cccc2cc3ccccc3cc12 | 56%
COc1cc(NS(C)(=O)=O)ccc1Nc1c2ccccc2nc2ccccc12 [AMSACRINE] | 12%
C(=N\NC1=NCCN1)/c1c2ccccc2nc2ccccc12 | 51%
C(=N\NC1=NCCN1)/c1ccc(/C=N/NC2=NCCN2)c2cc3ccccc3cc12 | 54%
C(=N\NC1=NCCN1)/c1c2ccccc2cc2ccccc12 | 41%

====

Reported Uncut DNA by item:
# SYSTEM_TESTED: DNA topoisomerase II (Homo sapiens) (UniProt P11388+Q02880)
# RUN_DESCRIPTION: Percent of DNA remaining uncut after incubation with Topoisomerase II at 10 uM concentration
# Assay type: protein assay
MEASURE: Uncut DNA (%)

CPD_SMILES | MEASURE | OBSERVED_MEASUREMENT
C(=N\NC1=NCCN1)/c1c2ccccc2cc2ccccc12 | Uncut DNA | 11
C(=N\NC1=NCCN1)/c1c2ccccc2nc2ccccc12 | Uncut DNA | 25
C(=N\NC1=NCCN1)/c1c2ccccc2c(/C=N/NC2=NCCN2)c2ccccc12 | Uncut DNA | 57
C(=N\NC1=NCCN1)/c1ccc(/C=N/NC2=NCCN2)c2cc3ccccc3cc12 | Uncut DNA | 95
C(=N\NC1=NCCN1)/c1cccc2cc3ccccc3cc12 | Uncut DNA | 20
COc1cc(NS(C)(=O)=O)ccc1Nc1c2ccccc2nc2ccccc12 | Uncut DNA | 1
